- System: dengue virus type 2
- assay-details: Inhibition of Dengue virus 2 NS2B-NS3 protease at 100 uM preincubated for 15 mins before Dabcyl- Lys-Gln-Arg-Arg-Gly-Arg-Ile-Glu-Edans substrate addition by fluorimetric assay
measurement-label: inhibition (%)

- O=C(NCCCCc1ccccc1)c1cc(/C=N/Nc2cccc(Br)c2)nc2ccccc12: 30.6
- O=C(NCCCc1ccccc1)c1cc(/C=N/Nc2cccc(Br)c2)nc2ccccc12: 24.2
- NS(=O)(=O)c1ccc(N/N=C/c2cc(C(=O)NCCCCc3ccccc3)c3ccccc3n2)cc1: 29.4
- NS(=O)(=O)c1ccc(N/N=C/c2cc(C(=O)NCCCc3ccccc3)c3ccccc3n2)cc1: 20.6
- CCOC(=O)c1cc(/C=N/N2C(=O)c3ccccc3C2=O)c(O)c(/C=N/N2C(=O)c3ccccc3C2=O)c1: 28

---

- Tested on: dengue virus type 2
- assay-details: Antiviral activity against Dengue virus 2 infected in BHK-D2RepT cells assessed as reduction in viral replication incubated for 48 hrs by luciferase reporter replicon-based assay
- Type: functional, organism-based
measurement-label: IC50 (µM)

Guide cases for IC50, answers given:
* COc1cc(/C=C/C(=O)CC(=O)/C=C/c2ccc(O)c(OC)c2)ccc1O | 4.2
* CCOC(=O)c1cc(/C=N/Nc2ccc(C(C)C)cc2)c(O)c(/C=N/Nc2ccc(C(C)C)cc2)c1 | 8
* O=C(O)c1cccc(N/N=C/c2cc(C(=O)NCCCCc3ccccc3)c3ccccc3n2)c1 | 11
* O=C(O)c1cccc(N/N=C/c2cc(C(=O)NCCCc3ccccc3)c3ccccc3n2)c1 | 30.9
* O=C(N/N=C\C=C\c1ccccc1)c1cc(/C=N/Nc2cccc([N+](=O)[O-])c2)nc2ccccc12 | 74.9
* O=C(N/N=C\Cc1ccccc1)c1cc(/C=N/Nc2cccc(Cl)c2)nc2ccccc12 | 61.3
* O=C(N/N=C\Cc1ccccc1)c1cc(/C=N/Nc2cccc(Br)c2)nc2ccccc12 | 24.7
* O=C(N/N=C\Cc1ccccc1)c1cc(/C=N/Nc2cccc(C(F)(F)F)c2)nc2ccccc12 | 73.4

(I) CCOC(=O)c1cc(/C=N/Nc2nc3ccccc3[nH]2)c(O)c(/C=N/Nc2nc3ccccc3[nH]2)c1
(II) COc1c(C)c2c(c(O)c1C/C=C(\C)CCC(=O)O)C(=O)OC2
Given I and given II , which shows the smaller recorded IC50? Mark your selection by writing its label. II
(II: 0.7 µM, I: 35.9 µM)

---

- Test system: dengue virus type 2
- assay-details: Inhibition of Dengue virus 2 NS2B-NS3 protease at 100 uM preincubated for 15 mins before Dabcyl- Lys-Gln-Arg-Arg-Gly-Arg-Ile-Glu-Edans substrate addition by fluorimetric assay
measurement-label: inhibition (%)

Guide cases for inhibition, answers given:
- CCOC(=O)c1cc(/C=N\NC(N)=S)c(O)c(/C=N\NC(N)=S)c1: 24.4
- O=C(NCCCc1ccccc1)c1cc(/C=N/Nc2cccc(Cl)c2)nc2ccccc12: 32.1
- CCOC(=O)c1cc(/C=N/NC(=O)Nc2ccccc2)c(O)c(/C=N/NC(=O)Nc2ccccc2)c1: 44.1

(P) Oc1c(/C=N/Nc2nc3ccccc3[nH]2)cccc1/C=N/Nc1nc2ccccc2[nH]1
(Q) O=C(N/N=C\CCc1ccccc1)c1cc(/C=N/Nc2cccc(C(F)(F)F)c2)nc2ccccc12
Endpoint returns whichever of P and Q has the numerically higher inhibition. Mark your selection by writing its label. P

---

- assay-details: Cytotoxicity against BHK cells incubated for 48 hrs by MTT assay
- Format: cell-based, Mesocricetus auratus
- applied-conditions: hamster
measurement-label: CC50 at 48 h (µM)
Write the value in µM as a bare number.

* CCOC(=O)c1cc(/C=N/Nc2ccc(C(C)C)cc2)c(O)c(/C=N/Nc2ccc(C(C)C)cc2)c1 | 29.7

Lab note: measured CC50 at 48 h of `CCOC(=O)c1cc(/C=N/Nc2nc3ccccc3[nH]2)c(O)c(/C=N/Nc2nc3ccccc3[nH]2)c1` was 12.6

Lab note: measured CC50 at 48 h of `O=C(N/N=C\Cc1ccccc1)c1cc(/C=N/Nc2cccc(Cl)c2)nc2ccccc12` was 19.7

Lab note: measured CC50 at 48 h of `O=C(O)c1cccc(N/N=C/c2cc(C(=O)NCCCCc3ccccc3)c3ccccc3n2)c1` was 49.7

Lab note: measured CC50 at 48 h of COc1cc(/C=C/C(=O)CC(=O)/C=C/c2ccc(O)c(OC)c2)ccc1O [CURCUMIN] was 14.8

Lab note: measured CC50 at 48 h of `O=C(N/N=C\C=C\c1ccccc1)c1cc(/C=N/Nc2cccc([N+](=O)[O-])c2)nc2ccccc12` was 25

Lab note: measured CC50 at 48 h of `O=C(N/N=C\Cc1ccccc1)c1cc(/C=N/Nc2cccc(C(F)(F)F)c2)nc2ccccc12` was 16.4

Lab note: measured CC50 at 48 h of `O=C(O)c1cccc(N/N=C/c2cc(C(=O)NCCCc3ccccc3)c3ccccc3n2)c1` was 64.3

Lab note: measured CC50 at 48 h of COc1c(C)c2c(c(O)c1C/C=C(\C)CCC(=O)O)C(=O)OC2 [MYCOPHENOLIC ACID] was 1.9

---

- System: dengue virus type 2
- assay-details: Inhibition of Dengue virus 2 NS2B-NS3 protease at 100 uM preincubated for 15 mins before Dabcyl- Lys-Gln-Arg-Arg-Gly-Arg-Ile-Glu-Edans substrate addition by fluorimetric assay
measurement-label: inhibition (%)

• CCOC(=O)c1cc(/C=N/NC(=O)c2ccc3c(c2)OCO3)c(O)c(/C=N/NC(=O)c2ccc3c(c2)OCO3)c1 = 35.4
• CCNC(=S)N/N=C\c1cc(C(=O)OCC)cc(/C=N\NC(=S)NCC)c1O = 28.2
• NS(=O)(=O)c1ccc(N/N=C/c2cc(C(=O)N/N=C\Cc3ccccc3)c3ccccc3n2)cc1 = 31.1
• O=C(N/N=C\C=C\c1ccccc1)c1cc(/C=N/Nc2cccc(C(F)(F)F)c2)nc2ccccc12 = 27.4

These measurements were taken from ChEMBL document CHEMBL2163279.
